Recorded pIC50 values (Receptor-type tyrosine-protein kinase FLT3 (Homo sapiens, UniProt P36888, ITD)) are given below.
Entry type: numeric. Quantity: pIC50, the -log10 of concentration in molar units.

CC(C)(C)c1cc(NC(=O)Nc2ccc3c(c2)sc2nc(-c4ccc(OCCN5CCOCC5)cc4)cn23)no1	8.08
CC(C)(C)c1cc(NC(=O)Nc2ccc(-c3cn4c(n3)sc3cc(OCCN5CCOCC5)ccc34)cc2)on1	8.25

q: Item: Cc1cc(NC(=O)Nc2ccc(-c3cn4c(n3)sc3cc(OCCN5CCOCC5)ccc34)cc2)on1 Test system: Receptor-type tyrosine-protein kinase FLT3 (Homo sapiens, UniProt P36888, ITD) Read-out: pIC50 Value: ?
a: 6.80

q: Item: COc1ccc2c(c1)sc1nc(-c3ccc(NC(=O)Nc4cc(C(C)(C)C)no4)cc3)cn12 Test system: Receptor-type tyrosine-protein kinase FLT3 (Homo sapiens, UniProt P36888, ITD) Read-out: pIC50 Value: ?
a: 7.69

q: Item: Cc1cc(NC(=O)Nc2ccc3c(c2)sc2nc(-c4ccc(OCCN5CCOCC5)cc4)cn23)on1 Test system: Receptor-type tyrosine-protein kinase FLT3 (Homo sapiens, UniProt P36888, ITD) Read-out: pIC50 Value: ?
a: 6.96

q: Item: CC(C)(C)c1cc(NC(=O)Nc2ccc3c(c2)sc2nc(-c4ccc(OCCN5CCOCC5)cc4)cn23)on1 Test system: Receptor-type tyrosine-protein kinase FLT3 (Homo sapiens, UniProt P36888, ITD) Read-out: pIC50 Value: ?
a: 8.17

q: Item: Cc1cc(NC(=O)Nc2ccc3c(c2)sc2nc(-c4ccc(OCCN5CCOCC5)cc4)cn23)no1 Test system: Receptor-type tyrosine-protein kinase FLT3 (Homo sapiens, UniProt P36888, ITD) Read-out: pIC50 Value: ?
a: 7.08

* * *

# System: Receptor-type tyrosine-protein kinase FLT3 (Homo sapiens), P36888 [UNDEFINED MUTATION]
# Sequence (P36888 whole entry, looked up, change not shown): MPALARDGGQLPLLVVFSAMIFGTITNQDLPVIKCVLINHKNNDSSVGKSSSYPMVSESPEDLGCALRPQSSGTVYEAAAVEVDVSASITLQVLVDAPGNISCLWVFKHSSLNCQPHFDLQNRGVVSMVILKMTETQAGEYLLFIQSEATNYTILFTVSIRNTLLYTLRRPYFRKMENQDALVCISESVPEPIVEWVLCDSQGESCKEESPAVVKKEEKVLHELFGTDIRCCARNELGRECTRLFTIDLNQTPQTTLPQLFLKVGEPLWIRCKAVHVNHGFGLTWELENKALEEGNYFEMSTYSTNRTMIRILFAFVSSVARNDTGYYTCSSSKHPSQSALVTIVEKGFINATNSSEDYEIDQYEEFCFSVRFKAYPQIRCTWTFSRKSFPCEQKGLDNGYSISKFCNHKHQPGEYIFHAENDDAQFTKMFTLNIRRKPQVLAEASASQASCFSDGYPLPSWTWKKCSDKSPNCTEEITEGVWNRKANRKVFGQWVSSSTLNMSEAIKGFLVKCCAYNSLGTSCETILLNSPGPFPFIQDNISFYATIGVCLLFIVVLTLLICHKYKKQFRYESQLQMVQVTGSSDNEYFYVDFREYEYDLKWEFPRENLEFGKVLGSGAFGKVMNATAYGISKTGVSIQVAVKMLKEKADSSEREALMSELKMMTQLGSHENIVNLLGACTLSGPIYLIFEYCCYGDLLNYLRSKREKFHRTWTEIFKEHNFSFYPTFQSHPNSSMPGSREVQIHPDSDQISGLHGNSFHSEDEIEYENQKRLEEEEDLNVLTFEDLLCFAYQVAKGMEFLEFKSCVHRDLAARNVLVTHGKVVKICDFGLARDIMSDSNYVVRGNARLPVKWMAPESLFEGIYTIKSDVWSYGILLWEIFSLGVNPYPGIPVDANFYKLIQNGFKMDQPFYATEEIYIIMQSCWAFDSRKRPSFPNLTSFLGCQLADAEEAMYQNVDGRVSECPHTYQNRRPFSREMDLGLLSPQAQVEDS
# assay_conditions: dose 500.0 nM
# Description: Inhibition of FLT3 ITD mutant (unknown origin) at 500 nM relative to control
readout_name: inhibition (%)
Quick reminder: number only, in %, skip the unit.

CC(C)(C)c1cc(NC(=O)Nc2ccc(C(=O)Nc3ccc(-c4cn5c(n4)sc4cc(OCCN6CCOCC6)ccc45)cc3)cc2)on1	41.9

q: // query inhibition value for entry Cc1cc(NC(=O)Nc2ccc(CC(=O)Nc3ccc(-c4cn5c(n4)sc4cc(OCCN6CCOCC6)ccc45)cc3)cc2)on1
a: 45.9

q: // query inhibition value for entry Cc1cc(NC(=O)Nc2ccc3c(c2)sc2nc(-c4ccc(OCCN5CCOCC5)cc4)cn23)on1
a: 76.9

q: // query inhibition value for entry COc1ccc2c(c1)sc1nc(-c3ccc(NC(=O)Nc4cc(C(C)(C)C)no4)cc3)cn12
a: 97.2
